These entries and their values trace back to the supplement of paper PMC10567573.

B1: GNAI1 (parent)
chain: WIHCFEGVTAIIFCVALSDYDLVL

- Variants of: B1
- PROTOCOL SUMMARY: protein stability index of a GFP-peptide fusion (GPS, HEK-293T) (PSI 1-6); higher = more stable;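 further: lentivirally expressed fusions sorted by FACS into six bins by GFP to DsRed ratio, PSI derived from sequencing read proportions per bin multiplied by bin number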
- MEASUREMENT PARAMETERS: c terminus: a fixed tail appended
Provide the reported protein stability index of each item.
// return just the number, without any unit appended

Q. Query (variant): S18P ; field requested: protein stability index
A. 2.3

Q. What value of protein stability index has been reported for the following variant? I12E
A. 4.44

Q. Please give the measured protein stability index for this variant: T9R
A. 2.51

Q. Could you tell me which protein stability index is on file for D21A ?
A. 3.49

Q. What does the data say about its protein stability index? Entry: T9Q
A. 2.66

Q. Recorded protein stability index for I11P , please?
A. 2.79

Q. Fill blank: measured protein stability index of the variant F13E is ____.
A. 1.84

Q. Dear colleague, I am looking for the recorded protein stability index of the following variant: F5H
A. 3.07

Q. Given H3C , state its recorded protein stability index.
A. 1.69

Q. What protein stability index value was documented for this variant, L24I ?
A. 3.87

Q. What value of protein stability index has been recorded for this entry: C4T
A. 2.39

Q. Could you share which protein stability index value was measured for L22P ?
A. 1.98

Q. Param item = C4P ; retrieve measured protein stability index.
A. 2.69

Q. Look up protein stability index: W1Q
A. 1.72

Q. Quick one: protein stability index of L22V ?
A. 4.39

Q. May I ask what protein stability index has been recorded for Y20F ?
A. 3.7

Q. What value of protein stability index has been reported for the following variant? A16Q
A. 2.56

Q. Quick check: protein stability index of I12Y ?
A. 3.14

Q. Which protein stability index value is on record for L24F ?
A. 2.34

Q. Need protein stability index of V23Y , thanks.
A. 3.15

Q. // protein stability index lookup, key: C14S
A. 3.26

Q. Recorded protein stability index of F5D , please.
A. 2.6

Q. Can you share its protein stability index? I mean this variant: W1E
A. 2.82

Q. Dear colleague, I am looking for the recorded protein stability index of the following variant: L22K
A. 3.61

Q. Find the recorded protein stability index belonging to I2Y and report it.
A. 3.56

Q. Look up protein stability index: D19M
A. 1.58

Q. Consider the variant shown here: V23E What is its recorded protein stability index?
A. 2.71

Q. Tell me the measured protein stability index of V8Y , please.
A. 2.2

Q. Name the recorded protein stability index for L22M .
A. 2.77

Q. Would you kindly share the measured protein stability index for C4R ?
A. 2.97

Q. Can you share its protein stability index? I mean this variant: L17E
A. 3.42

Q. Consider the variant I11Y and give its measured protein stability index.
A. 3.17

Q. What measured protein stability index goes with D19A ?
A. 2.02

Q. Look up protein stability index for this variant: I12N
A. 2.9

Q. Request the reported protein stability index associated with W1V
A. 3.35

Q. GET /values?readout=protein stability index&item= H3Y
A. 3.39

Q. GET /values?readout=protein stability index&item= L24T
A. 3.34

Q. Recorded protein stability index for G7C , please?
A. 4.35

Q. Sample G7Y — what was its protein stability index?
A. 2.62

Q. I would be grateful if you could share the reported protein stability index for A10S .
A. 1.82

Q. Which protein stability index is listed for D21Y ?
A. 2.41

Q. Dear colleague, I am looking for the recorded protein stability index of the following variant: S18I
A. 4.92

Q. Given the variant V23S , what is its reported protein stability index?
A. 2.21

Q. Which value of protein stability index has been reported for E6T in the records?
A. 2.2

Q. Consider the variant shown here: L22N What is its recorded protein stability index?
A. 1.85

Q. Quick check: protein stability index of S18F ?
A. 1.9
